Where do the numbers come from? From patent US11312726B2.

- ASSAY_NAME: In vivo pharmacokinetics test in mice
- RUN_PARAMETERS: mouse, plasma; Intravenous, 1 mg/kg, female Balb/c mice; read-out: Half life T1/2 (converted)
EXPERIMENTAL_READOUT: half-life (min)
Respond numerically; units are min and should not be typed.

Asked: What does the record list as half-life for `Cc1sc2c(c1C)C(c1ccc(Cl)cc1)=N[C@@H](CC(=O)Nc1ccc3c(c1)COC3=O)c1nnc(C)n1-2` ?
Given back: 65.4

---

- ASSAY_NAME: In vivo pharmacokinetics test in mice
- RUN_PARAMETERS: mouse, plasma; Intravenous, 1 mg/kg, female Balb/c mice; read-out: Clearance rate Cl
EXPERIMENTAL_READOUT: clearance (mL/min/kg)
Respond numerically; units are mL/min/kg and should not be typed.

Asked: What does the record list as clearance for `Cc1sc2c(c1C)C(c1ccc(Cl)cc1)=N[C@@H](CC(=O)Nc1ccc3c(c1)COC3=O)c1nnc(C)n1-2` ?
Given back: 12.5

---

- ASSAY_NAME: In vivo pharmacokinetics test in mice
- RUN_PARAMETERS: mouse, plasma, po; Intragastric, 3 mg/kg (table; text says 2 mg/kg), female Balb/c mice; read-out: Half life T1/2 (converted)
EXPERIMENTAL_READOUT: half-life (h)
Respond numerically; units are h and should not be typed.

Asked: What does the record list as half-life for Cc1sc2c(c1C)C(c1ccc(Cl)cc1)=N[C@@H](CC(=O)Nc1ccc3c(c1)COC3=O)c1nnc(C)n1-2 [Compound 32] ?
Given back: 1.47

---

- TGT: BRD4-BD1 (Homo sapiens (Human), UniProt O60885)
- ASSAY_NAME: BRD4 biochemical activity test (TR-FRET), BD1
- RUN_PARAMETERS: read-out: BRD4 Binding (BD1), IC50
pIC50: −log10 of the molar value.
pIC50 of 7 or higher: TRUE. Under 7: FALSE.

Look over these answered cases.
- MOL: "Cc1sc2c(c1C)C(c1ccc(Cl)cc1)=N[C@@H](CC(=O)Nc1n[nH]c(=O)c3ccccc13)c1nnc(C)n1-2"
  GROUP_LABEL: "TRUE"
- MOL: "CC(=O)N1Cc2ccc(NC(=O)C[C@@H]3N=C(c4ccc(Cl)cc4)c4c(sc(C)c4C)-n4c(C)nnc43)cc2C1"
  GROUP_LABEL: "TRUE"
- MOL: "Cc1sc2c(c1C)C(c1ccc(Cl)cc1)=N[C@@H](CC(=O)Nc1ccc3c(c1)CC(F)(F)C3)c1nnc(C)n1-2"
  GROUP_LABEL: "FALSE"
- MOL: "Cc1sc2c(c1C)C(c1ccc(Cl)cc1)=N[C@@H](CC(=O)Nc1ccc3c(c1)CC1(COC1)C3)c1nnc(C)n1-2"
  GROUP_LABEL: "TRUE"
- MOL: "Cc1sc2c(c1C)C(c1ccc(Cl)cc1)=N[C@@H](CC(=O)Nc1ccc3c(c1)C[C@@H](F)C3)c1nnc(C)n1-2"
  GROUP_LABEL: "FALSE"

Asked: Threshold query (pIC50 >= 7) on `Cc1sc2c(c1C)C(c1ccc(Cl)cc1)=N[C@@H](CC(=O)Nc1ccc3c(c1)OCCOCCOCCO3)c1nnc(C)n1-2`
Given back: TRUE

Asked: Threshold query (pIC50 >= 7) on `Cc1sc2c(c1C)C(c1ccc(Cl)cc1)=N[C@@H](CC(=O)Nc1ccc3c(c1)C(=O)OC3)c1nnc(C)n1-2`
Given back: TRUE

Asked: Threshold query (pIC50 >= 7) on `Cc1sc2c(c1C)C(c1ccc(Cl)cc1)=N[C@@H](CC(=O)Nc1ccc3c(c1)C1(CC1)NC3=O)c1nnc(C)n1-2`
Given back: TRUE

Asked: Threshold query (pIC50 >= 7) on `Cc1sc2c(c1C)C(c1ccc(Cl)cc1)=N[C@@H](CC(=O)Nc1ccc3c(c1)COC3)c1nnc(C)n1-2`
Given back: TRUE

Asked: Threshold query (pIC50 >= 7) on `Cc1sc2c(c1C)C(c1ccc(Cl)cc1)=N[C@@H](CC(=O)Nc1ccc3c(c1)CN(C(N)=O)C3)c1nnc(C)n1-2`
Given back: FALSE
